# subjectOfTest: IP receptor (Homo sapiens, UniProt P43119)
# Construct: HEL cells were collected with centrifugation and washed with cAMP assay buffer
# Sequence (P43119 whole entry): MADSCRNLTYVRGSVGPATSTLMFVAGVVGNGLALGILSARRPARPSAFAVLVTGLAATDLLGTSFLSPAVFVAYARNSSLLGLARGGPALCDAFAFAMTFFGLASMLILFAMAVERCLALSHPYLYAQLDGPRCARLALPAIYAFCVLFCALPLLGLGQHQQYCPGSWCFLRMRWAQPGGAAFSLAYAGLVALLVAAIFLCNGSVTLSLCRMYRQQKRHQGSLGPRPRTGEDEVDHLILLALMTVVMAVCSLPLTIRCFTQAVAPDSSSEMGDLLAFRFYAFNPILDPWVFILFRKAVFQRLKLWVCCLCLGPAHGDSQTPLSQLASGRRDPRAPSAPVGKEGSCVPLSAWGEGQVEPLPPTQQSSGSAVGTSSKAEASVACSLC
# assayProcedure: Iloprost-induced cAMP production assay in HEL cells (Assay 2)
# measurementSetup: read-out: Activity grade assay 2
# Method: [Iloprost-Induced cAMP Production Assay in HEL Cells] (Assay 2) HEL cells were collected with centrifugation and washed with cAMP assay buffer (CAB: Hank's balanced salt solution, 17 mM Hepes, 0.1% bovine serum albumin, 1 mM IBMX, 0.4% DMSO, and 1 mM L-ascorbic acid sodium salt (pH 7.4)). […] Then, another 10 μl containing 100 nM iloprost in CAB or buffer alone was added and further incubated at 37° C. for 30 min. cAMP content in the well was measured by a cAMP ELISA kit (Applied Biosystems, USA). […]
pIC50: −log10 of the molar value.
resultType: pIC50

{"molecule": "O=C(N[C@@H](Cc1ccccc1)C(=O)O)c1ccc2cc(NCc3ccccc3)ccc2c1", "subjectOfTest": "IP receptor (Homo sapiens, UniProt P43119)", "reportedValue": "6.00 to 7.00"}
{"molecule": "Cc1nc(COc2ccc3cc(C(=O)NC(Cc4ccccc4)C(=O)O)ccc3c2)cs1 (centres unmarked)", "subjectOfTest": "IP receptor (Homo sapiens, UniProt P43119)", "reportedValue": "6.00 to 7.00"}
{"molecule": "CCCCOc1cccc(COc2ccc3cc(C(=O)NC(Cc4ccccc4)C(=O)O)ccc3c2)c1 (centres unmarked)", "subjectOfTest": "IP receptor (Homo sapiens, UniProt P43119)", "reportedValue": "6.00 to 7.00"}
{"molecule": "COc1ccc(COc2ccc3cc(C(=O)NC(Cc4ccccc4)C(=O)O)ccc3c2)cc1 (centres unmarked)", "subjectOfTest": "IP receptor (Homo sapiens, UniProt P43119)", "reportedValue": "< 6.00"}
{"molecule": "O=C(NC(Cc1ccccc1)C(=O)O)c1ccc2cc(OCCc3ccncc3)ccc2c1 (centres unmarked)", "subjectOfTest": "IP receptor (Homo sapiens, UniProt P43119)", "reportedValue": "> 7.00"}
{"molecule": "O=C(N[C@@H](Cc1ccccc1)C(=O)O)c1ccc2cc(OCc3ccccc3)ccc2c1 [Example 2-2]", "subjectOfTest": "IP receptor (Homo sapiens, UniProt P43119)", "reportedValue": "< 6.00"}
{"molecule": "O=C(NC(Cc1ccccc1)C(=O)O)c1ccc2cc(OCc3ccccc3Br)ccc2c1 (centres unmarked)", "subjectOfTest": "IP receptor (Homo sapiens, UniProt P43119)", "reportedValue": "> 7.00"}
{"molecule": "Cc1cc(C)cc(COc2ccc3cc(C(=O)NC(Cc4ccccc4)C(=O)O)ccc3c2)c1 (centres unmarked)", "subjectOfTest": "IP receptor (Homo sapiens, UniProt P43119)", "reportedValue": "6.00 to 7.00"}
